# target.or.test.system: Peroxisome proliferator-activated receptor gamma (Homo sapiens)
# Sequence (P37231 whole entry): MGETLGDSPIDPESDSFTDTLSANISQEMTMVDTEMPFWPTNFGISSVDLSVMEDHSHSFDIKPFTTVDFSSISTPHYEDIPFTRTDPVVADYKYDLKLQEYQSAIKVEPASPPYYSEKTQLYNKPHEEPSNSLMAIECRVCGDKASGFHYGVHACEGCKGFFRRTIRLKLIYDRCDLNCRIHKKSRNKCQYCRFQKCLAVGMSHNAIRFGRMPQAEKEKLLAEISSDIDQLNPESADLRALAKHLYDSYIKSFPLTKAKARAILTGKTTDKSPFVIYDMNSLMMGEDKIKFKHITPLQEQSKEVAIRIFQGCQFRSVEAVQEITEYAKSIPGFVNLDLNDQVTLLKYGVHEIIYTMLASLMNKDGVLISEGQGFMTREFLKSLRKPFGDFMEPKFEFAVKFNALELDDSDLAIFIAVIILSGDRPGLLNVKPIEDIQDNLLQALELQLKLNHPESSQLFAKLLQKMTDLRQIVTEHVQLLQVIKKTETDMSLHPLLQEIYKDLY
# protocol.details: Activity against PPAR gamma in human by FRET assay
Would you mind telling me the reported EC50 of each entry?
Numbers only, in nM.

These recorded examples may help you get a feel for the data.
| compound | EC50 [nM] |
| --- | --- |
| CCC(C(=O)O)C1CCc2cc(OCCc3nc(-c4ccccc4)oc3C)c(-c3ccc(OC)cc3)cc21 (stereo not drawn) | 124 |
| CCC(C(=O)O)C1CCc2cc(OCCc3nc(-c4cccc5ccccc45)oc3C)ccc21 (stereo not drawn) | 113 |

Let us move to another entry and its EC50.
What EC50 value was documented for this compound, CC[C@@H](C(=O)O)[C@@H]1CCc2cc(OCCc3nc(-c4ccccc4)oc3C)ccc21 ? 95

* * *

Would you mind telling me the reported log10 EC50 of each entry?
# target.or.test.system: Peroxisome proliferator-activated receptor alpha (Homo sapiens)
# Sequence (Q07869 whole entry): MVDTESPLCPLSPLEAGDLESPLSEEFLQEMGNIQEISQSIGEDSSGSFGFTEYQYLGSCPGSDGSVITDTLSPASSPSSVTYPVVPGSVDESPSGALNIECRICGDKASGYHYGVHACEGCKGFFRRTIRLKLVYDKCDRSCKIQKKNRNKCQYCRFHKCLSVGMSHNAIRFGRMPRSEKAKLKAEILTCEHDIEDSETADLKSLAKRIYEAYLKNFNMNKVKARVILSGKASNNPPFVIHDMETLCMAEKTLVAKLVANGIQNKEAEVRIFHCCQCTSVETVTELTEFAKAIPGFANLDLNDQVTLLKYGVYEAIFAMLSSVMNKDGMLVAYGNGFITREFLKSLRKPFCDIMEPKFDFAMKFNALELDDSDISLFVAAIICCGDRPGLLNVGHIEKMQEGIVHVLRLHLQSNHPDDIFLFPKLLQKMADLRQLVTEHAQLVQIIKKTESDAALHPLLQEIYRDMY
# protocol.details: Activity against PPAR alpha in human by FRET assay
# values: log10(EC50), units nM

These recorded examples may help you get a feel for the data.
| compound | target.or.test.system | parameter.measured | assay.value |
| --- | --- | --- | --- |
| CCC(C(=O)O)C1CCc2cc(OCCc3nc(-c4ccc5ccccc5c4)oc3C)ccc21 (stereo unspecified) | Peroxisome proliferator-activated receptor alpha (Homo sapiens) | log10 EC50 | 2.02 |
| CCC(C(=O)O)C1CCc2cc(OCCc3nc(-c4cccc(F)c4)oc3C)ccc21 (stereo unspecified) | Peroxisome proliferator-activated receptor alpha (Homo sapiens) | log10 EC50 | 2.53 |
| CCC(C(=O)O)C1CCc2cc(OCCc3nc(-c4cccc(OC)c4)oc3C)ccc21 (stereo unspecified) | Peroxisome proliferator-activated receptor alpha (Homo sapiens) | log10 EC50 | 2.40 |
| CCC(C(=O)O)C1CCc2cc(OCCc3nc(-c4ccc(F)cc4)oc3C)ccc21 (stereo in doubt; 54) | Peroxisome proliferator-activated receptor alpha (Homo sapiens) | log10 EC50 | 2.14 |
| CCC(C(=O)O)C1CCc2cc(OCCc3nc(-c4cccc(C(F)(F)F)c4)oc3C)ccc21 (stereo unspecified) | Peroxisome proliferator-activated receptor alpha (Homo sapiens) | log10 EC50 | 2.23 |
| CC[C@@H](C(=O)O)[C@H]1CCc2cc(OCCc3nc(-c4ccc(Cl)c(Cl)c4)oc3C)ccc21 | Peroxisome proliferator-activated receptor alpha (Homo sapiens) | log10 EC50 | 1.80 |

Quick batch: log10 EC50 for everything below.
1. CC[C@H](C(=O)O)[C@@H]1CCc2cc(OCCc3nc(-c4ccc(Cl)c(Cl)c4)oc3C)ccc21
2. CCC(C(=O)O)C1CCc2cc(OCCc3nc(-c4cccc5ccccc45)oc3C)ccc21 (stereo unspecified)
3. Cc1oc(-c2ccccc2)nc1CCOc1ccc2c(c1)CCC2C(C(=O)O)C1CC1 (stereo unspecified)

1.76
2.65
2.90

Quick batch: log10 EC50 for everything below.
1. CCC(C(=O)O)C1CCc2cc(OCc3nc(-c4ccccc4)oc3C)ccc21 (stereo unspecified)
2. CCC(C(=O)O)C1CCc2cc(OCCc3nc(-c4ccc5c(c4)OCO5)oc3C)ccc21 (stereo unspecified)

[3.09, 2.55]

Attribution: ChEMBL document CHEMBL1147759
